parameter measured: melting point

* CSC1C(=O)Nc2ccc(Oc3cc(F)c(C(F)(F)F)c(Cl)c3)cc21 (stereo not given) | 137 to 142 °C
* O=C1Nc2cc(Cl)ccc2Cn2nnnc21 | 256 to 259 °C
* COC(COC1CC2C3CCC4=CC(=O)CCC4(C)C3(F)C(O)CC2(C)C1(O)C(=O)CO)OC (stereo not given) | 192 to 194 °C
* CNC(=NC#N)NCCSCc1nccc(N)n1 | 189 to 190 °C
* Cn1cc(C(=O)NC2CCCNC(=O)C2)nn1 (stereo not given) | 259 to 260 °C
* N#CCCNC(=O)c1cccc(-c2ncc3ccn(Cc4ccc(Cl)cc4Cl)c3n2)c1 | 198 to 199 °C
* CN(C)Cc1ccc(OCC(=O)N2CCN(c3ccc(N4C[C@H](CNC(=S)C5CC5)OC4=O)cc3F)CC2)cc1 | 169 to 170 °C
* CCC(O)(CC(=O)OC)c1cc2n(c(=O)c1COC)Cc1cc3ccccc3nc1-2 (stereo not given) | 163 to 166 °C
* COc1cc(-c2nc(NC3CCCC3)c3c(C)c(C#N)sc3n2)cc(OC)c1OC | 218 to 220 °C
* CC(=O)OCSc1ccc2c3c(cccc13)C(=O)N2 | 149 to 154 °C

Source: a melting point compilation (Tetko et al.; mined from patent text by program, amines drawn as free bases though some values may be those of a salt)
